Reported values of apparent KD of MS2 coat protein for individual entries
Test system: MS2 coat protein
Test: apparent KD of MS2 coat protein; higher = weaker reporter binding
Settings: Eterna round: R107; input ligand: tryptophan 2.4 mM

- Residue Sequence: "UACCGAUGAAGAAGGAGCGUGCGUGGUUCACAUGAGGAUCACCCAUGUGCUUUAUACUAGGCACAGGUAGGUCGCUUCAUCGGUA [SSAB NP+V+V2 #22]"
  apparent KD of MS2 coat protein [nM]: 23.3
- Residue Sequence: "AGCGAUUUCGGAAGGAGCGGUACAUGAGGAUCACCCAUGUAUUCAAUCGUGAUCGGCGCGUGCCAGGUAGGUCGCCGAAGGCGUC [Veatat]"
  apparent KD of MS2 coat protein [nM]: 11.9
- Residue Sequence: "AUCUACGUGGGUGAUACCAGCUGGUUAGUACACAUGAGGAUCACCCAUGUGCAGGCAGGCAGCCCUUGGCAGCACCGCAGUGGCU [theeternabot_sameState_MS2_Theo_B_36]"
  apparent KD of MS2 coat protein [nM]: 60.9

----------
Test system: MS2 coat protein
Assay: apparent KD of MS2 coat protein; higher = weaker reporter binding
Settings: Eterna round: R107; input ligand: tryptophan 2.4 mM
Reported apparent KD of MS2 coat protein is given for each of the following sequences.

- Residue Sequence: "UGUAUGUGAUCUGAUACCAGAGUGACGCGAAAGCGAAACCUGAGGAUCACCCUGGUAAAACUCCCUUGGCAGCAGAUCGCAUACU"
  apparent KD of MS2 coat protein [nM]: 68.3
- Residue Sequence: "AACAGGGCUUCCACGAAGCCCUAAGGUGAUACCAGCACAUGUAAGUGCCCUUGGCAGCACGGUACAUGAGGAUCACCCAUGUAGA [Gerara]"
  apparent KD of MS2 coat protein [nM]: 24.3
- Residue Sequence: "UGACAUUGCUCAGAUACCAGACGUGAGGAUCACCCACGUGCCAACAAGUACAUAAUAAAUGUCCCUUGGCAGCUGAGCAAUGUCU [TheoBX 17 #MS2Left #Theo2 #AlternativeMS2]"
  apparent KD of MS2 coat protein [nM]: 10.9
- Residue Sequence: "GCCGGGCCCGCGGCCGCCACUGAGAGAGUCGUGUGAACAUGAGGAUCACCCAUGUAAUAUAUAUACAGGACCGGGCGGGCCCGGC [4.X]"
  apparent KD of MS2 coat protein [nM]: 13.9
- Residue Sequence: "AAUCUGUCGGGUGAUACCAGCCUCGGCGCAUCUCACGCUGAACAUGAGGAUCACCCAUGUGGCCCUUGGCAGCACAUGACAAAUC [Tivece]"
  apparent KD of MS2 coat protein [nM]: 620
- Residue Sequence: "CCGACAUGAGGAUCACCCAUGUGAACAGAUACCAGUCUGGUAAUAGACCCUUGGCAGCUGAACCAGGAAACUAUGGUGAUCCUGG [Theo A SS t3]"
  apparent KD of MS2 coat protein [nM]: 83.6
- Residue Sequence: "GUUUAAAGGUCGGCCGCCACUGUAGGAUGUGUUCUUUCACAUGAGGAUCACCCAUGUUGUUAUUAUAGGACCGGGAUUGUAGGAC [39MS split4]"
  apparent KD of MS2 coat protein [nM]: 31.7
- Residue Sequence: "AUAACAUGAGGAUCACCCAUGUAAGCUGAAGGAGCGCUGGAAACAGCAGGUAGGUCGCAGCGGCGACCUUCAUGGGUAAGGUCGC [(M1)-(M2)-(Arg1)-(Arg2)-(A)'-(M)'-(A)''_Design4]"
  apparent KD of MS2 coat protein [nM]: 30.4
- Residue Sequence: "UGUAUGUGAUUUGAUACCAGACCAGCUGGUGGUACUUGAGGAUCACCCAGGUAGGUUUGGGUCCCUUGGCAGCAAAUCGCAUACU [SS Theo B #24 Ms12]"
  apparent KD of MS2 coat protein [nM]: 1310
- Residue Sequence: "UACCGAUGAAGAAGGAGCGUACGUGGUUCACAUGAGGAUCACCCAUGUGCUUAUUGCUAGGUACAGGUAGGUCGCUUCAUCGGUA [SSAB NP+V+V2 #21]"
  apparent KD of MS2 coat protein [nM]: 15.8
- Residue Sequence: "UCGUGUAUAUCGGAUACCAGUGAGAACGAUACAUGAGGAUCACCCAUGUGAGUUGAUGUACACCCUUGGCAGCUGUAUAUAUCUA [gghullin]"
  apparent KD of MS2 coat protein [nM]: 20
- Residue Sequence: "CUAUGCAGGUCGGCCGCCACUACACACAUGAGGAUCACCCAUGUAGUUACUGGGUGAAGUGGCAGUAGGACCGGGACCUGCAUAC [Brourdmod10]"
  apparent KD of MS2 coat protein [nM]: 362
- Residue Sequence: "UUGUUGUUUGGAAGGAGCGUGUAAGAUUAAGAACAUGAGGAUCACCCAUGUUUUAAGGGAGCACAGGUAGGUCGCCGGGUGGUGG [11.S]"
  apparent KD of MS2 coat protein [nM]: 21.5
- Residue Sequence: "ACAUGAAGAACAGCGGUGGGCGCGCUCGAUACCAGUAUUUUAAACUACCCUUGGCAGCGACAUGAGGAUCACCCAUGUGAGAUGA [XTheo A #6]"
  apparent KD of MS2 coat protein [nM]: 19.5

----------
Test system: K4 kissing-loop RNA reporter
Test: apparent KD of K4 kissing-loop reporter; higher = weaker reporter binding
Details: Eterna round: R107; input ligand: FMN 200 uM
Attribute Measured: apparent KD of K4 kissing-loop reporter (nM)

- Residue Sequence: "UGCGCUGUGUACUGAAAUGUUAUGCGGGAUACCAGAGUCUUUUUAUUCCCUUGGCAGCUUGAGUGAUGUUUGAUGCCGUUCUUGU [po,,mmullin]"
  Endpoint Value: 490
- Residue Sequence: "UGUAUAUGAUGUGAUACCAGUGAAGAGCCAGUGAUGUUGGUAGAACUGGUAUAUAAAUAACACCCUUGGCAGCACAAUCACGUAC [whbob_Ex_Theo_B_sa98]"
  Endpoint Value: 192
- Residue Sequence: "GCAGUCAAUCGACCACGAAAGUGGAUGGAUACCAGAGUCGAAAGACUCCCUUGGCAGCCAGUGAUGUUGGAAGACUGCAAUAAAA [#SwitchBubble 16 #K4Late]"
  Endpoint Value: 1120
- Residue Sequence: "GGAUAGGAUAGAGGAUAUGGUAGUGAUGUUACCAAACUGGUUAAACAUGUCAGAAAACUGGCAUGACCAGAAGGUUGUCCUAUCG [FmnBX 27 U9+U75]"
  Endpoint Value: 80.5
- Residue Sequence: "GGUCCGGGCUCGGCCGCCACUCCCUCCUGCCGGAAGGUGGGAUACCGAGUGAUGUUCGGUUGGAGGAGGACCGGGAGCCCGGACC [#2 Exclusion - Tryptophan B Attempt #13 (HarryS)]"
  Endpoint Value: 132
- Residue Sequence: "UGAUAGGACAGAAGGAGCGGUAGUGAUGUUACCAAAAGGAUAAGGUGUCAAAAGACACCCUGCCAGGUAGGUCGCUGUCCUAUCU"
  Endpoint Value: 102
- Residue Sequence: "AGACUACCACACUGUCAAUAGACAGUGUACUAGGAUAUGCUGAUAAGCAGAAGGAGUGAUGUUCCUGGGUAGUCAAUAAAAUAAU [FmnAX 13 U28+G67]"
  Endpoint Value: 507
- Residue Sequence: "UGUGUUGUUUUGAUGUUUGGUGUAAGUUGGCAGGAUAUCGUAGAGGCGAGAAGGGCUUUUAUGCGUUAUGAGUGAUGUUUGUAGG [zrrzmullin]"
  Endpoint Value: 640
- Residue Sequence: "UAUACUAGACAAGAGAGAAUUCUCUCAAGAGAGGAUAUCCGAAUUCGGAGAAGGCUCUCUCAGUGAUGUUGGGAAUAGUCUAGAA [AK6 SS FMN A]"
  Endpoint Value: 150
- Residue Sequence: "AAGUGAUGUUGUAGUGAUGUUGUGAUGUUGCAGGAUAUAUAGUGAUGUAGAAGGGUAUGUGCAGUUUUCAUAUUUGAGUGUUGAU [mkkhmullin]"
  Endpoint Value: 85.2
- Residue Sequence: "AUUUAGACGAGUGAUGUUCGUGUUAUUACAGAGGAUAUGCGUGAUUGCAGAAGGCUGUAUUUAUAUAUGUUAUGUGGUUUUAAAA [whbob_Ex_FMNA__2th186]"
  Endpoint Value: 79.7
- Residue Sequence: "AAACAUUGGUCGGAUACCAGCUUGAUCGGAAAACGAUCUGCUGGAGUGAUGUUCCAAUAAAGCCCUUGGCAGCCGACCGAUGAAA [MAT - Same State Theophlline B - Mod of Eli - D14]"
  Endpoint Value: 814

----------
System: K4 kissing-loop RNA reporter;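 also: bound reporter read as fluorescence of individual clusters on recovered sequencing chips by microscopy, with normalized cluster intensities fitted with a binding model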
Assay: apparent KD of K4 kissing-loop reporter; higher = weaker reporter binding
Conditions: Eterna round: R107; input ligand: FMN 200 uM
Outcome label depends on apparent KD of K4 kissing-loop reporter relative to 0.2 µM: at/above gives class 1, below gives class 0.

- Residue Sequence: "UUGGCAGUGAUGUUGCCAGAGUUCACCGAAGGAGCGGGUGAAAACCCAGGUAGGUCGCGGUAGCGGAGUGAUUCUCCGCGAGGGC [Same State Arginine A GF 22]"
  Tested Target: "K4 kissing-loop RNA reporter"
  Category Label: "class 0"
- Residue Sequence: "UAUACGCUAGUGAUGUUGGCGAAGACUGAAGGAGCGUGCGAGAGUACAGGUAGGUCGCAGUCAGACAGAUUGUACCUGUCUUAUG [Arg A SS t10]"
  Tested Target: "K4 kissing-loop RNA reporter"
  Category Label: "class 1"
- Residue Sequence: "GUCUCAAAAGAGGCAAGCACUCACGAGGACAAGGAUAUCAUAUCAAUGAGAAGGUGUCCUCGUCCUUAGUGAUGUUAAGGAGUGC [Omei KL FMN A SS E v3]"
  Tested Target: "K4 kissing-loop RNA reporter"
  Category Label: "class 1"
- Residue Sequence: "UAUAUAGUGAUGUUAUAUAUACAUUCGGAAGGAGCGUGGUAAAACACAGGUAGGUCGCUGAAAUAAUUAAAAUAAUUUUCUUUUU [AstrosSSArgA#1]"
  Tested Target: "K4 kissing-loop RNA reporter"
  Category Label: "class 1"
- Residue Sequence: "UUCUGCAUCUCGGCCGCCACUCACUAGUGAUGUUAGUAAGGAGCGACUAGACAUGUCCCGUUGUUGAGGACCGGGAGAGGCUCUU [#14 K4 Tryptophan B Exclusion]"
  Tested Target: "K4 kissing-loop RNA reporter"
  Category Label: "class 0"
- Residue Sequence: "CGUCACAAACCUAGUCAAGUGAUGUUUGGCCGAGGACCGGUACGGCCGCCACUCGCUCCUGUCACCCAUUCGUGUGUCGCGGACU [theeternabot_exclusion_KL_Trp_A_5]"
  Tested Target: "K4 kissing-loop RNA reporter"
  Category Label: "class 1"
- Residue Sequence: "UUACGAGUGAUGUUCGAAUAAAUCCAUUCAGAGGAUAUAGUAUUAACUAGAAGGCUGAAACCAACUUCGAGUCAUGUUCGAGGAU [Same State FMN A GF 2]"
  Tested Target: "K4 kissing-loop RNA reporter"
  Category Label: "class 1"
- Residue Sequence: "CUUGAUGGAAACAUCGAGUAGAUUACUGAUACCAGUAUCGAUAGAUACCCUUGGCAGCAGAAUCAGUAAUCACGAGUGAUGUUCG [Ex Theophylline A K4 7]"
  Tested Target: "K4 kissing-loop RNA reporter"
  Category Label: "class 1"
- Residue Sequence: "UUUUGGUACUGAGGAUAUUCGAAGAAAUAUAGUGAUGUUAUAUAAGGAGGAGGAGGGAGGGAGGAAGGAGAAGGCAGAAGAGGAG [ExFMNB.G]"
  Tested Target: "K4 kissing-loop RNA reporter"
  Category Label: "class 1"
- Residue Sequence: "AUUAAUUUCAGAGGAUAUCGUUAUUUUUUAUAUUUUAUUCAUUUAUGCAGUGAUGUUGCUAUUAAUCGAGAAGGCUGAUUUAUAA [JR_ExcFMNB_Sub003]"
  Tested Target: "K4 kissing-loop RNA reporter"
  Category Label: "class 0"
- Residue Sequence: "AAAUAAUGCAGUCACCCAGUGAUGUUGGAAGGAGCGUGCGAAAGCACAGGUAGGUCGCCAAUAAUGAUAAAGUUCAGUGGCUUUA [JR_Nu_ExcArginiA_Sub030]"
  Tested Target: "K4 kissing-loop RNA reporter"
  Category Label: "class 1"
- Residue Sequence: "GGAUAGGACAUAGGAUAUGGGCUAGGCAAGAAUAACUUGUCUAGCAAAUCCAUGAGGAGUGAUGUUCCAGAAGGGUGUCCUAUCG [FmnBX 1 U11+G75]"
  Tested Target: "K4 kissing-loop RNA reporter"
  Category Label: "class 0"
